assay: Cytotoxicity in the HCoV 229E qPCR assay; assay type: cell-based; conditions: human, MRC5 cells, not infected
Listing: CC50 at 2 days of selected compounds

Some solved entries appear below for comparison.
compound	measurement
C/C(O)=C(\C#N)C(=O)Nc1ccc(C(F)(F)F)cc1 [Teriflunomide, teriflunomide]	> 100 µM
Cc1oncc1C(=O)Nc1ccc(C(F)(F)F)cc1 [Leflunomide, leflunomide]	> 100 µM

Now for a further compound.
Problem: Return CC50 at 2 days (reported value) for this compound: CCC(CC)COC(=O)[C@H](C)N[P@](=O)(OC[C@H]1O[C@@](C#N)(c2ccc3c(N)ncnn23)[C@H](O)[C@@H]1O)Oc1ccccc1 [Remdesivir (blinded), remdesivir]
Solution: > 100 µM
